- details: 350 K; 101.33 kPa; Crystal; Small sample (50 mg) DSC
quantity_name: molar entropy (J/K/mol)
The reply should contain only the number, in J/K/mol.

Lab note: O[C@H]1[C@H](O)[C@@H](O)[C@H](O)[C@@H](O)[C@H]1O [cis-1,2,3,5-trans-4,6-cyclohexanehexol] gave molar entropy of 236.62

Just so you know, measured molar entropy for OC[C@@H](O)C(O)[C@H](O)CO came out at 235.68

Entry OC[C@H](O)C(O)[C@@H](O)CO [L-(-)-arabitol] , molar entropy reported as 239.2

Memo: OC[C@@H](O)[C@@H](O)CO , reported molar entropy: 194.32

Lookup result for OC[C@@H](O)[C@@H](O)[C@H](O)[C@H](O)CO ; measured molar entropy: 267.55

The reported molar entropy of the compound OC[C@@H](O)[C@H](O)[C@@H](O)CO was 235.17
